- System Tested: Nonstructural protein 1 (Influenza A virus, UniProt Q194T2)
- Sequence (Q194T2 whole entry): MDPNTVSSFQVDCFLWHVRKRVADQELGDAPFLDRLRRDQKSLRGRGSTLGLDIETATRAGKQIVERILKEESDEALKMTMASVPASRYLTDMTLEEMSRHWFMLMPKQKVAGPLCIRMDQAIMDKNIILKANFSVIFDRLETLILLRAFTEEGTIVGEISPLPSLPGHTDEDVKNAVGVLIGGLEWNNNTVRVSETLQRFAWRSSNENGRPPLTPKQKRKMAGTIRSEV
- Format: functional, Influenza A virus (A/California/07/2009(H1N1))
The source made the active and inactive calls.
So I've got a bunch of compounds here, and I need their IC50 values.

Write down the reported IC50 of COC(=O)C1CCN(C2=C(NS(=O)(=O)c3ccc(Cl)cc3)C(=O)c3ccccc3C2=O)CC1 , test system: Nonstructural protein 1 (Influenza A virus, UniProt Q194T2).
27.4 µM (active)

What measured IC50 is associated with C/[N+]([O-])=C\c1ccc2cccc(O)c2n1 on Nonstructural protein 1 (Influenza A virus, UniProt Q194T2)?
1.68 µM (active)

// fetch Nonstructural protein 1 (Influenza A virus, UniProt Q194T2) IC50 for CCCCC(=O)NC(c1ccc(N(C)C)cc1)c1ccc2cccnc2c1O (centres undefined)
24.9 µM (active)

Which measured IC50 belongs to COc1cc(C(=O)N/N=C(\C)c2ccccn2)cc(OC)c1OC , tested on Nonstructural protein 1 (Influenza A virus, UniProt Q194T2)?
16.9 µM (active)
